src = PubChem BioAssay (NCI)

tested on: HOP-62 NSCLC; experiment: NCI-60 one-dose screen, 48 h (100 = growth as untreated, 0 = no growth, -100 = all killed); conditions: 10 µM unless noted
This is part of a sample that, as a whole, favours compounds with a hit. Of some 83,000 tested, about 20% had one in any assay.
A collection of compounds and their measured growth
Provide only the numeric value, understood in %.

Answered cases to consult:
{"COMPOUND": "Cc1ccc(-c2c(Br)c(OC(=O)CO[C@@H]3C[C@H](C)CC[C@H]3C(C)C)c(-c3ccc(C)cc3C)c(Br)c2OC(=O)CO[C@H]2C[C@@H](C)CC[C@@H]2C(C)C)c(C)c1", "RESULT": 94.5}
{"COMPOUND": "CCCCCCOc1ccc(C(=N)N(CCCC)CCCC)c2ccccc12", "RESULT": -89}
{"COMPOUND": "Fc1ccc(-n2cc(COc3ncnc4sc5c(c34)CCCC5)nn2)cc1Cl", "RESULT": 96.3}
{"COMPOUND": "COc1cccc(NC(=O)c2cccc(-c3cc(=O)c4c(OC)c(OC)c(OC)cc4o3)c2)c1", "RESULT": 59.5}
{"COMPOUND": "COC(=O)CCCCCCCCC1(C)C=CC(C(C)O)=CC1 (stereo unspecified)", "RESULT": 101}

Continue with the compound presented below.
Value of measured growth for the entry "Cc1ccccc1-c1cc(Cc2ccc(F)cc2)c(=O)[nH]n1" : 95

====

A collection of compounds and their measured growth
tested on: DU-145 prostate; assay: NCI-60 one-dose screen, 48 h (100 = growth as untreated, 0 = no growth, -100 = all killed); details: 10 µM unless noted
This is part of a sample that, as a whole, favours compounds with a hit. Of some 83,000 tested, about 20% had one in any assay.
Provide only the numeric value, understood in %.

{"COMPOUND": "CCc1c(Nc2ccc(C)cc2)nc(N)[nH]c1=O", "STUDY TARGET": "DU-145 prostate", "UOM": "%", "growth": 111}
{"COMPOUND": "COc1cc2nc(-c3ccc(C(F)(F)F)cc3)cc(OCCN3CCC(O)CC3)c2cc1OC", "STUDY TARGET": "DU-145 prostate", "UOM": "%", "growth": 58.8}
{"COMPOUND": "Cc1c2c(cc[n+]1Cc1ccc(F)cc1)c1ccc(OCc3cccc(F)c3)cc1n2Cc1cccc(F)c1", "STUDY TARGET": "DU-145 prostate", "UOM": "%", "growth": -90.8}

Value of measured growth for the entry CCCCCCCCCCCCC1CCC/C=C\CCC(=O)O1 (stereo not given) : 115

Value of measured growth for the entry "CCOC(=O)c1c(SC)nn(-c2cc(=O)[nH]c3ccc(Br)cc23)c1N" : 94.6

Value of measured growth for the entry "COc1cc2ncnc(Nc3ccc(C(=O)/C=C/c4ccc(C(F)(F)F)cc4F)cc3)c2cc1OC" : 107

Value of measured growth for the entry "CCOC(=O)c1cnc2c(cnn2CC)c1NN=C(C)C" : 100

Value of measured growth for the entry CCN(CC)CCCC(C)Nc1c2c(nc3ccc(OC)cc13)CCCC2 (stereo not given) : 111

Value of measured growth for the entry "C(=C\c1n(Cc2ccc3ccccc3c2)c(-c2ccccc2)c(-c2ccccc2)[n+]1Cc1ccc2ccccc2c1)/c1ccccc1" : -97

Value of measured growth for the entry "OC1(c2ccc(Cl)c(C(F)(F)F)c2)CCN(CCCC(c2ccc(F)cc2)c2ccc(F)cc2)CC1" : -97

Value of measured growth for the entry "N#C/C(=C\c1ccc(Br)cc1)n1nnc2cccc(F)c21" : 0.426

Value of measured growth for the entry "COc1ccc(-c2cnnc3c(-c4cccc(C(F)(F)F)c4)cnn23)cc1" : 57.8

Value of measured growth for the entry Clc1cc(Cl)cc(N2N=C(c3cccc(Nc4ccncc4)c3)CC2c2ccccc2)c1 (stereo not given) : 35.7

Value of measured growth for the entry "CSc1nc(O)c(-c2ccccc2)c(=O)[nH]1" : 107
